- Tested System: UniProt:P49840
- Sequence (P49840 whole entry, looked up): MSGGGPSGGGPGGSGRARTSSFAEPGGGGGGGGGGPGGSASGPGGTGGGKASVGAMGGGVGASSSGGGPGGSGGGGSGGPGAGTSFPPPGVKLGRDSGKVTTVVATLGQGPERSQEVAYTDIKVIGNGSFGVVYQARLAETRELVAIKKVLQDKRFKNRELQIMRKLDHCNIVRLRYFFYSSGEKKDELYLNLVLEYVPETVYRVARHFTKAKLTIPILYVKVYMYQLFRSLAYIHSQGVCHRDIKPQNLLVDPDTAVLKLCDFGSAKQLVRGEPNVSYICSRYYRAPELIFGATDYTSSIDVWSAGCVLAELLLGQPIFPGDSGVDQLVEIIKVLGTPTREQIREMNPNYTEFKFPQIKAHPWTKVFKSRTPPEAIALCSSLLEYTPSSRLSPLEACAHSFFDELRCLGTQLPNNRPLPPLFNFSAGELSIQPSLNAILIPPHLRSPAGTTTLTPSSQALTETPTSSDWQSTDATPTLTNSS
- Method: radiometric filter-binding kinase assay, Kinase HotSpot
- Condition Notes: compound 0.5 µM; ATP 10 µM
Endpoint Name: residual activity (%)
Give the value in % but do not write % after it.

Answered examples (5):
INSERT INTO results (smiles_str, endpoint_name, data_value) VALUES
  ('O=c1cc(N2CCOCC2)oc2c1ccc1ccccc12', 'residual activity', 97.1),
  ('CCN(CC)CCNC(=O)c1c(C)[nH]c(/C=C2\C(=O)Nc3ccc(Cl)cc32)c1C', 'residual activity', 88.3),
  ('N#C/C(=C(/N)Sc1ccc(N)cc1)c1ccccc1C(F)(F)F', 'residual activity', 110),
  ('CCOC(=O)c1c(C)[nH]c(/C=C2\C(=O)Nc3ccccc32)c1C', 'residual activity', 93.5),
  ('O=C(Nc1cccc(Nc2nccc(Nc3cccc(C(F)(F)F)c3)n2)c1)C1CC1', 'residual activity', 95);

Lookup: What value of residual activity on UniProt:P49840 does Cc1ccc(S(=O)(=O)/C=C/C#N)cc1 have?
Found: 106

Lookup: What value of residual activity on UniProt:P49840 does CNC(=O)c1cc(Oc2ccc(NC(=O)Nc3ccc(Cl)c(C(F)(F)F)c3)cc2)ccn1 have?
Found: 103

Lookup: What value of residual activity on UniProt:P49840 does O=C1NC(=O)C(c2cn(CCCn3ccnc3)c3ccccc23)=C1Nc1ccccc1 have?
Found: 10.6
